- SYSTEM: Tyrosine-protein kinase ABL1 (Homo sapiens) + Ras and Rab interactor 1 (Homo sapiens) (UniProt P00519+Q13671)
- Sequence (P00519 whole entry, looked up): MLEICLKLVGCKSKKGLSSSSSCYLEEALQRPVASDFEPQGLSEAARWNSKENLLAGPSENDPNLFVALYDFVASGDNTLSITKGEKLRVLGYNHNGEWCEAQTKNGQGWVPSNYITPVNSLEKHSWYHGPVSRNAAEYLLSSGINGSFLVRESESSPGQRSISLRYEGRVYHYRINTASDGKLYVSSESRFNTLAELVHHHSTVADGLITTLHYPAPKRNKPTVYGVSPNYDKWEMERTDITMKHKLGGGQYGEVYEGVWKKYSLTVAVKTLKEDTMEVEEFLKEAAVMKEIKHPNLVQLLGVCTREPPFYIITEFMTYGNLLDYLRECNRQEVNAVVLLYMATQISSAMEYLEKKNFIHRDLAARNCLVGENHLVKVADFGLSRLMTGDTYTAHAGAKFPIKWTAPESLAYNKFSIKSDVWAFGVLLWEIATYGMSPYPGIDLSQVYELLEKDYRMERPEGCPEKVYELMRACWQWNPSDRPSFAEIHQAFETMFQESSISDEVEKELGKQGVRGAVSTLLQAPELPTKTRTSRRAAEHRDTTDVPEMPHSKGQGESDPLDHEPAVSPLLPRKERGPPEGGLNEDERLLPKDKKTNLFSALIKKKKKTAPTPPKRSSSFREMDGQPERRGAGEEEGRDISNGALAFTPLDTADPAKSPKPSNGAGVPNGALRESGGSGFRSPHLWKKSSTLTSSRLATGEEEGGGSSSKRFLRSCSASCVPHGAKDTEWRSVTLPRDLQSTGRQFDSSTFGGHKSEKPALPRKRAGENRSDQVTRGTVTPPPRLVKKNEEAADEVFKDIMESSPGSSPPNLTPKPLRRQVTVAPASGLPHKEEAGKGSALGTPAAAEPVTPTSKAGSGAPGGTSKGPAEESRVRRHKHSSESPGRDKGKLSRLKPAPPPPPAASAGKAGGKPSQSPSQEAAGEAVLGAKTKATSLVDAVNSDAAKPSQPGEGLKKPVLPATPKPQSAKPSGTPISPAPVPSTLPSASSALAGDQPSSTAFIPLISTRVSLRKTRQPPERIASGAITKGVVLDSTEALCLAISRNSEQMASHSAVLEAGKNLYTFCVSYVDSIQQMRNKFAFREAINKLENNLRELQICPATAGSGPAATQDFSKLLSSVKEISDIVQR
- Sequence (Q13671 whole entry, looked up): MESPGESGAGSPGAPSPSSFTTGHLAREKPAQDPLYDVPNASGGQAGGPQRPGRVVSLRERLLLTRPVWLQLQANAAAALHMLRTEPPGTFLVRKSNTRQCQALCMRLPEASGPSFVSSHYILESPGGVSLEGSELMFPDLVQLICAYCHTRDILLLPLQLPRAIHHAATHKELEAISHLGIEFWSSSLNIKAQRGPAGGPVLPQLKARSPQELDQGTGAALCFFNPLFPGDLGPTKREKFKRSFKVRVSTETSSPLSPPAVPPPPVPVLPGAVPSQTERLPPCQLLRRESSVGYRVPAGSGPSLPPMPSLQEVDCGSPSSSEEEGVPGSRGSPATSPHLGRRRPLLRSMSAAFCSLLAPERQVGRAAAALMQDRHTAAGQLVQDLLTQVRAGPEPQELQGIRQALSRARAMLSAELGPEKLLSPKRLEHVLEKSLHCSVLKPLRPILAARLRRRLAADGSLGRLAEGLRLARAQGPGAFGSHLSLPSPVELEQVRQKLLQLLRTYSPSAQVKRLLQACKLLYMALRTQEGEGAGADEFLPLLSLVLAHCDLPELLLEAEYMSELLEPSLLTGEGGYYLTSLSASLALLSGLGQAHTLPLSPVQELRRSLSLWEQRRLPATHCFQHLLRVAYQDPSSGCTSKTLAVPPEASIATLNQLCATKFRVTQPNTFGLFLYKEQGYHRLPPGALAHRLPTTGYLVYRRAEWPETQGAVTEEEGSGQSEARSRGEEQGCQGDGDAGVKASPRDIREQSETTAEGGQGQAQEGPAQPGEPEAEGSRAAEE
- ASSAY_REMARKS: inhibitors of Rin1-Abl protein binding, primary screen, biochemical, TR-FRET (AID 588664)
- RECORDED_CONDITIONS: at 7.35 µM
About 1,400 (0.39%) of roughly 360,000 compounds were called active. No stated cut-off is given here; in the data, active means inhibition above about 5% (passing the limit was not always enough); inactive means the rest. For the sample, actives were picked, then their nearest neighbours and some compounds at random.
Classes used: active, inactive

> print(dat)
                                smiles.entry  assigned.class
 1  COc1ccc(CNC(=O)c2c[nH]c3c(OC)cc(OC)cc3c2=O)cc1        inactive
 2  Oc1c(CN2CCN(c3ccc(F)cc3)CC2)cc(Cl)c2cccnc12          active
 3  CCOc1c2ccc(C(=O)NCc3ccc(OC(F)(F)F)cc3)cc2nn1C        inactive
 4  COc1ccc(CNC(=O)c2cc(C(=O)C3CC3)c[nH]2)cc1          active
 5  Cc1cc(=O)oc2cc(OCC(=O)N3CCN(c4ccc(F)cc4)CC3)c(Cl)cc12        inactive
 6  C#CCN(N(C)c1ncc(C(F)(F)F)cc1Cl)S(=O)(=O)c1ccc2ccccc2c1        inactive
 7              Cc1cc(NC(=O)CSCc2ccccc2C)no1        inactive
 8                   COc1ccc(OCCn2ccnc2C)cc1        inactive
 9  COc1ccccc1C(=O)COC(=O)CSCC(=O)Nc1cc(C)on1        inactive
10       Cc1noc(C)c1-c1nc(CSc2ccc(Cl)cc2)no1        inactive
11  CCc1nnc(NC(=O)CSc2nc3ccccc3c(=O)n2CCCOC)s1        inactive
